Each recorded value in this set is attributed to patent US5811445A.

SYSTEM UNDER TEST: AT1 receptor of angiotensin II (Rattus norvegicus, UniProt P25095)
Construct: A fresh membrane preparation obtained from rat's liver is used; from tissue; host or cells: rat liver membranes
Sequence (P25095 whole entry): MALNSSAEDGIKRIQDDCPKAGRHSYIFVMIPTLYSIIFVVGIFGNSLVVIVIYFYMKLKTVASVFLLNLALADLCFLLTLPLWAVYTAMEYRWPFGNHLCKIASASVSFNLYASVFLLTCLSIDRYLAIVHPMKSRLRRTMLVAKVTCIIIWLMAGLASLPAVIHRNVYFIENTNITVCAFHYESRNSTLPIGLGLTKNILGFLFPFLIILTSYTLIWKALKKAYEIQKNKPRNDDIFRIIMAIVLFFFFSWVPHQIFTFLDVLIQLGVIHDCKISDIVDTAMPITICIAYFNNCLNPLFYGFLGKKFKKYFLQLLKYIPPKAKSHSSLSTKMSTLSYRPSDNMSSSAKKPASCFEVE
TEST NAME: Test on the AT1 receptor of angiotensin II (displacement of 125I angiotensin II, rat liver membranes)
Type: binding
TEST SETTINGS: products P1 to P13; expressed in nM; read-out: On AT1 receptor IC50
Experimental: 1 - Test on the AT1 -receptor of angiotensin II A fresh membrane preparation obtained from rat's liver is used. […] (The product is first tested with 3×10^-5 M three times). When the tested product displaces more than 50% of the radioactivity specifically bound to the receptor, it is tested again according to a range of 7 concentrations in order to determine the concentration which inhibits by 50% the radioactivity specifically bound to the receptor. […]
Entries and their IC50 values follow.
Respond numerically; units are nM and should not be typed.

>  <COMPOUND>
CCCCc1nc(SC)c(C(=O)O)n1Cc1ccc(-c2ccccc2S(=O)(=O)NC(=O)NCc2ccccc2)cc1 [Example P2]

>  <SYSTEM UNDER TEST>
AT1 receptor of angiotensin II (Rattus norvegicus, UniProt P25095)

>  <OBSERVED RESULT>
0.1

$$$$
>  <COMPOUND>
CCCCc1nc(SC)c(C(=O)O)n1Cc1ccc(-c2ccccc2S(=O)(=O)NC(=O)OCC2CC=CCC2)cc1 (stereo not drawn)

>  <SYSTEM UNDER TEST>
AT1 receptor of angiotensin II (Rattus norvegicus, UniProt P25095)

>  <OBSERVED RESULT>
0.7

$$$$
>  <COMPOUND>
CCCCc1nc(SC)c(C(=O)O)n1Cc1ccc(-c2ccccc2S(=O)(=O)NC(=O)OCc2ccccc2)cc1

>  <SYSTEM UNDER TEST>
AT1 receptor of angiotensin II (Rattus norvegicus, UniProt P25095)

>  <OBSERVED RESULT>
0.8

$$$$
>  <COMPOUND>
CCCCc1nc(SC)c(C(=O)O)n1Cc1ccc(-c2ccccc2S(=O)(=O)NC(=O)NC(Cc2ccccc2)C(=O)O)cc1 (stereo not drawn)

>  <SYSTEM UNDER TEST>
AT1 receptor of angiotensin II (Rattus norvegicus, UniProt P25095)

>  <OBSERVED RESULT>
0.4

$$$$
>  <COMPOUND>
CCCCc1nc(OC)c(C=O)n1Cc1ccc(-c2ccccc2S(=O)(=O)NC(=O)OCc2ccccc2)cc1

>  <SYSTEM UNDER TEST>
AT1 receptor of angiotensin II (Rattus norvegicus, UniProt P25095)

>  <OBSERVED RESULT>
5.9

$$$$

Briefly, IC50 measured for `CCCCc1nc(SC)c(C(=O)O)n1Cc1ccc(-c2ccccc2S(=O)(=O)NC(=O)OCC2CCCCC2)cc1` : 0.14

###

SYSTEM UNDER TEST: AT2 receptor of angiotensin II (Oryctolagus cuniculus)
Construct: A fresh membrane preparation obtained from rabbit's uterus is used; from tissue; host or cells: uterus membranes of estradiol-treated rabbits
Sequence (G1T351 1-363): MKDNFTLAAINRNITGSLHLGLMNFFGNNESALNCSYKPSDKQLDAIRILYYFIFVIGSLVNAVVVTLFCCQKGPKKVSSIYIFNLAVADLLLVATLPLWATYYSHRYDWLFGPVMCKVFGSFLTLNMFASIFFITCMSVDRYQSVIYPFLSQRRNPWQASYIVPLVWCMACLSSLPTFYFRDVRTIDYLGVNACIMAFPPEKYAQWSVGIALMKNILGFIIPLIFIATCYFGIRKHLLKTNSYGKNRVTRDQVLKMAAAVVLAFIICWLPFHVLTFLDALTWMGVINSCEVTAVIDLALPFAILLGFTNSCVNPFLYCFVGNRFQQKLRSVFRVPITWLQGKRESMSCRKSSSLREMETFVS
TEST NAME: Test on the AT2 receptor of angiotensin II (displacement of 125I angiotensin II, rabbit uterus membranes)
Format: binding
TEST SETTINGS: rabbit uterus membrane (estradiol pre-treated), 125I angiotensin II, 25° C., 150 minutes; read-out: AT2 Receptor IC50
READOUT LABEL: pIC50
To interpret pIC50, take it as minus log10 of a concentration measured in moles per litre.

>  <COMPOUND>
CCCc1nc(SC)c(C(=O)O)n1Cc1ccc(-c2ccccc2S(=O)(=O)NC(=O)NCc2ccccc2)cc1

>  <OBSERVED RESULT>
8.23

$$$$
>  <COMPOUND>
CCCc1nc(SC(F)F)c(C(=O)O)n1Cc1ccc(-c2ccccc2S(=O)(=O)NC(=O)NCc2ccccc2)cc1

>  <OBSERVED RESULT>
9.59

$$$$
>  <COMPOUND>
CCCc1nc(SC(F)F)c(C(=O)O)n1Cc1ccc(-c2ccccc2S(=O)(=O)NC(=O)NCCC2=CCCCC2)cc1

>  <OBSERVED RESULT>
8.24

$$$$
>  <COMPOUND>
CCCc1nc(SC(F)F)c(C(=O)O)n1Cc1ccc(-c2ccccc2S(=O)(=O)NC(=O)CCC2CCCC2)cc1

>  <OBSERVED RESULT>
8.68

$$$$
>  <COMPOUND>
CCCCc1nc(SC)c(C(C)(O)C(=O)O)n1Cc1ccc(-c2ccccc2S(=O)(=O)NC(=O)NCCC)cc1 (stereo not drawn)

>  <OBSERVED RESULT>
8.07

$$$$
>  <COMPOUND>
CCCc1nc(SC)c(C(O)(C(=O)O)c2ccccc2)n1Cc1ccc(-c2ccccc2S(=O)(=O)NC(=O)NCc2ccccc2)cc1 (stereo not drawn)

>  <OBSERVED RESULT>
8.68

$$$$
>  <COMPOUND>
CCCc1nc(SC)c(C(=O)O)n1Cc1ccc(-c2ccccc2S(=O)(=O)NC(=O)Nc2ccc(C)cc2)cc1

>  <OBSERVED RESULT>
8.46

$$$$
>  <COMPOUND>
CCCCC(O)(C(=O)O)c1c(SC)nc(CCC)n1Cc1ccc(-c2ccccc2S(=O)(=O)NC(=O)NCc2ccccc2)cc1 (stereo not drawn)

>  <OBSERVED RESULT>
9.10

$$$$

Briefly, pIC50 measured for CCCCc1nc(SC)c(C(C)(O)C(=O)O)n1Cc1ccc(-c2ccccc2S(=O)(=O)NC(=O)OCc2ccccc2)cc1 (stereo not drawn) : 8.28
